Sourced from patent US20090082395A1

Collected melting point values appear next to each entry.

> print(dat)
                          structure.smiles       endpoint  observed.measurement
1  O=C(Nc1ccc(C(F)(F)F)cc1)Nc1ccc2ncccc2c1  melting point         259 to 263 °C

Continue with the next compound.
response.value for Cc1nc2cc(NC(=O)Nc3cccc(C(F)(F)F)c3)ccc2o1 (field: melting point) = 184 to 186 °C

* * *

Listing of recorded melting point by entry.

> print(dat)
                           structure.smiles  observed.measurement
1    Cc1cc2cc(NC(=O)Nc3ccc(Cl)cc3)ccc2[nH]1         257 to 260 °C
2  Cc1nc2cc(NC(=O)NC34CC5CC(CC(C5)C3)C4)ccc2s1         209 to 214 °C
3  Cc1nc2cc(NC(=O)Nc3ccc(C(F)(F)F)cc3)ccc2o1         240 to 243 °C
4  Cc1cc2cc(NC(=O)NC34CC5CC(CC(C5)C3)C4)ccc2[nH]1         146 to 152 °C
5  O=C(Nc1ccc(C(F)(F)F)cc1)Nc1ccc2c(c1)OC(F)(F)O2         195 to 200 °C

Please turn your attention to the following entry.
Sure, the documented melting point for O=C(Nc1ccc2[nH]c(C(F)(F)F)nc2c1)NC12CC3CC(CC(C3)C1)C2 is 189 to 192 °C

* * *

test system: soluble epoxide hydrolase (sEH); experiment: Fluorescent assay for mouse and human soluble epoxide hydrolase (CMNPC substrate); type: biochemical; details: compound concentration 500 nM; recombinant sEH, species (mouse or human) not given
endpoint: % Inh (%)

> print(dat)
                           structure.smiles  units.label  observed.measurement
1  O=C(Nc1cccc(C(F)(F)F)c1)Nc1ccc2nc(C(F)(F)F)[nH]c2c1            %                    85
2  Cc1nc2cc(NC(=O)Nc3cccc(C(F)(F)F)c3)ccc2o1            %                    93
3  O=C(Nc1ccc2[nH]c(C(F)(F)F)nc2c1)NC12CC3CC(CC(C3)C1)C2            %                    93
4  O=C(Nc1ccc(Cl)cc1)Nc1ccc2[nH]c(C(F)(F)F)nc2c1            %                    91
5  O=C(Nc1cccc(C(F)(F)F)c1)Nc1ccc2c(c1)OC(F)(F)O2            %                    89

* * *

System: soluble epoxide hydrolase (sEH)
Assay: Fluorescent assay for mouse and human soluble epoxide hydrolase (CMNPC substrate)
Format: biochemical
Details: compound concentration 50 nM; recombinant sEH, species (mouse or human) not given
Protocol: Fluorescent Assay for Mouse and Human Soluble Epoxide Hydrolase Recombinant mouse sEH (MsEH) and human sEH (HsEH) were produced in a baculovirus expression system as previously reported. Grant et al., J. Biol. Chem., 268:17628-17633 (1993); Beetham et al., Arch. […] Protein concentration was quantified using the Pierce BCA assay using bovine serum albumin as the calibrating standard. […] The assay was also evaluated with similar results in crude cell lysates or homogenate of tissues. […]
endpoint: % Inh (%)

> print(dat)
                            structure.smiles  observed.measurement
 1  O=C(Nc1cccc(C(F)(F)F)c1)Nc1ccc2c(c1)COC2=O                    86
 2  Cc1nc2cc(NC(=O)Nc3ccc(C(F)(F)F)cc3)ccc2o1                    98
 3  Cn1ncc2cc(NC(=O)Nc3ccc(C(F)(F)F)cc3)ccc21                    92
 4  O=C(Nc1ccc(C(F)(F)F)cc1)Nc1ccc2c(c1)COC2=O                    87
 5  O=C(Nc1ccc(C(F)(F)F)cc1)Nc1ccc2[nH]c(C(F)(F)F)nc2c1                    80
 6  O=C(Nc1ccc(C(F)(F)F)cc1)Nc1ccc2c(c1)OC(F)(F)O2                    91
 7  Cc1cc2cc(NC(=O)NC34CC5CC(CC(C5)C3)C4)ccc2[nH]1                    85
 8  O=C(Nc1ccc2c(c1)OC(F)(F)O2)NC12CC3CC(CC(C3)C1)C2                    99
 9  Cc1nc2cc(NC(=O)NC34CC5CC(CC(C5)C3)C4)ccc2s1                    92
10    Cc1cc2cc(NC(=O)Nc3ccc(Cl)cc3)ccc2[nH]1                    89
11  O=C(Nc1ccc(Cl)cc1)Nc1ccc2c(c1)OC(F)(F)O2                    95

* * *

endpoint: melting point

Check out these entries, answers already filled in.
> print(dat)
                           structure.smiles  observed.measurement
1  O=C(Nc1cccc(C(F)(F)F)c1)Nc1ccc2nc(C(F)(F)F)[nH]c2c1         213 to 215 °C
2  Cn1ncc2cc(NC(=O)Nc3ccc(C(F)(F)F)cc3)ccc21         252 to 254 °C
3  O=C(Nc1cccc(C(F)(F)F)c1)Nc1ccc2c(c1)COC2=O         279 to 282 °C
4  O=C(Nc1ccc2c(c1)OC(F)(F)O2)NC12CC3CC(CC(C3)C1)C2         213 to 215 °C
5  O=C(Nc1ccc(C(F)(F)F)cc1)Nc1ccc2[nH]c(C(F)(F)F)nc2c1         223 to 228 °C

The reported value for O=C(Nc1ccc(Cl)cc1)Nc1ccc2c(c1)OC(F)(F)O2 in terms of melting point is 231 to 233 °C

The recorded melting point for entry O=C(Nc1ccc(Cl)cc1)Nc1ccc2[nH]c(C(F)(F)F)nc2c1 equals 264 to 268 °C
